# target_desc: Cholinesterase (Equus caballus)
# Sequence (P81908 whole entry): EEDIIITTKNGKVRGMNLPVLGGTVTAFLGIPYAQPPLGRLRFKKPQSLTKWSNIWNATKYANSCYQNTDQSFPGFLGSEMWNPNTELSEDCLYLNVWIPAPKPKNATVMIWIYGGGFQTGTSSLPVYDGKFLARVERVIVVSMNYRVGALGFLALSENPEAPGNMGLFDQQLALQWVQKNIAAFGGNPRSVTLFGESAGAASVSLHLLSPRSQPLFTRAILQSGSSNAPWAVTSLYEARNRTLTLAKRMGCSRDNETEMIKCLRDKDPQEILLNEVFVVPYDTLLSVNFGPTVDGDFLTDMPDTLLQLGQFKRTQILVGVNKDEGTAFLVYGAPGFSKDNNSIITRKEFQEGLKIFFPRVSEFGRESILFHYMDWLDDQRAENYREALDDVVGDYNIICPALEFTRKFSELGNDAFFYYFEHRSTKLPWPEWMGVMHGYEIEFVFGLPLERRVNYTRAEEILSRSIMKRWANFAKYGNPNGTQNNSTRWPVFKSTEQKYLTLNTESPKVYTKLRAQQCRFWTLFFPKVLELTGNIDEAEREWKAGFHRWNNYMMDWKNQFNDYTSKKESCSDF
# assay: Inhibition of equine serum BChE using butyrylthiocholine as substrate preincubated for 20 mins followed by substrate addition and measured upto 5 mins by Ellman's method
For each record, write down the corresponding IC50.
Write the number in nM without appending the unit.

[ask] Give its IC50 value. Item: "O=C(c1ccccc1)N1CCCc2[nH]c3ccc(F)cc3c2C1"
[reply] 6000

[ask] Query: IC50; subject: "Cl.c1ccc(CCCN2CCCc3[nH]c4ccccc4c3C2)cc1"
[reply] 280

[ask] For the molecule shown here, "Fc1ccc2[nH]c3c(c2c1)CN(Cc1ccc(CN2CCCC2)cc1)CCC3" , give the reported IC50.
[reply] 4300

[ask] Which measured IC50 value corresponds to "Cc1ccc(CN2CCCc3[nH]c4ccccc4c3C2)cc1" ?
[reply] 950

[ask] Dear colleague, I am looking for the recorded IC50 of the following molecule: "CCN(CC)Cc1ccc(CN2CCCc3[nH]c4ccc(F)cc4c3C2)cc1"
[reply] 1400

[ask] Quick one: IC50 for "Cc1ccc2[nH]c3c(c2c1)CNCCC3" ?
[reply] 8000

[ask] I'd like to know its IC50. The molecule in question is "Cl.c1ccc(CCCCN2CCCc3[nH]c4ccccc4c3C2)cc1"
[reply] 170

[ask] Consider the molecule shown here: "Cn1c2c(c3ccccc31)CN(CCc1ccccc1)CCC2" What is its recorded IC50?
[reply] 860

[ask] For "Cl.c1ccc(CCN2CCCc3[nH]c4ccccc4c3C2)cc1" , what is its reported IC50?
[reply] 700

[ask] So what's the measured IC50 for this one? "c1ccc(CN2CCCc3[nH]c4ccccc4c3C2)cc1"
[reply] 2000

[ask] Please report the recorded IC50 for "Cc1ccc2[nH]c3c(c2c1)CN(C)CCC3" .
[reply] 7100

[ask] Consider the molecule "Fc1ccc2[nH]c3c(c2c1)CNCCC3" and give its measured IC50.
[reply] 4300
